All values here come from PubChem BioAssay AID1963423.

- Test system: 439559-082-T-J2-PDC complex spheroid growth
- protocolNotes: Anticancer human tumor 439559-082-T-J2-PDC patient-derived colon adenocarcinoma cell line growth inhibition [Asc]
- conditionContext: second compound 1 µM; first compound 0.0316 µM; stronger effect = lower value
recordedEndpoint: viability, T/C (%)

INSERT INTO results (molecule, scaleunit, numericvalue) VALUES
  ('NC1CCC(NC2CC2c2ccccc2)CC1 (configuration not stated) + CNC(C)C(=O)NC1CN(S(=O)(=O)c2cccc(S(=O)(=O)N3CCC4CCC(C(=O)NC(c5ccccc5)c5ccccc5)N4C(=O)C(NC(=O)C(C)NC)C3)c2)CCC2CCC(C(=O)NC(c3ccccc3)c3ccccc3)N2C1=O', '%', 86.3),
  ('C=CC(=O)N1CCN(c2nc(=O)n(-c3c(C)ccnc3C(C)C)c3nc(-c4c(O)cccc4F)c(F)cc23)C(C)C1 (configuration not stated) + CNC(C)C(=O)NC1CN(S(=O)(=O)c2cccc(S(=O)(=O)N3CCC4CCC(C(=O)NC(c5ccccc5)c5ccccc5)N4C(=O)C(NC(=O)C(C)NC)C3)c2)CCC2CCC(C(=O)NC(c3ccccc3)c3ccccc3)N2C1=O', '%', 81.9);

====

- Tested on: 439559-082-T-J2-PDC complex spheroid growth
- protocolNotes: Anticancer human tumor 439559-082-T-J2-PDC cell line growth inhibition [Asc];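 further: spheroids exposed to agents for 7 days starting day 3 after seeding; percent of DMSO vehicle control viability with 100% = vehicle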
- conditionContext: second compound 3 µM; first compound 1 µM; stronger effect = lower value
Rule: measured viability, T/C below 80% gets 1 (yes); anything equal to or greater than 80% gets 0 (no).

INSERT INTO assay_data (compound, labelclass) VALUES
  ('O=C(c1cc(Cc2n[nH]c(=O)c3ccccc23)ccc1F)N1CCN(C(=O)C2CC2)CC1 + CCN1C(C(=O)NC23CCC(C(=O)O)(CC2)CC3)C(c2cccc(Cl)c2F)C2(C(=O)Nc3cc(Cl)ccc32)C12CCCCC2', '0 (no)'),
  ('C=CC(=O)N1CCN(c2nc(=O)n(-c3c(C)ccnc3C(C)C)c3nc(-c4c(O)cccc4F)c(F)cc23)C(C)C1 (stereo not drawn) + CCN1C(C(=O)NC23CCC(C(=O)O)(CC2)CC3)C(c2cccc(Cl)c2F)C2(C(=O)Nc3cc(Cl)ccc32)C12CCCCC2', '0 (no)'),
  ('COc1c(OCCCN2CCOCC2)ccc2c3n(c(=NC(=O)c4cnc(N)nc4)nc12)CCN3 + CCN1C(C(=O)NC23CCC(C(=O)O)(CC2)CC3)C(c2cccc(Cl)c2F)C2(C(=O)Nc3cc(Cl)ccc32)C12CCCCC2', '1 (yes)'),
  ('C#Cc1c(F)ccc2cc(O)cc(-c3ncc4c(N5CC6CCC(C5)N6)nc(OCC56CCCN5CC(F)C6)nc4c3F)c12 (stereo not drawn) + CCN1C(C(=O)NC23CCC(C(=O)O)(CC2)CC3)C(c2cccc(Cl)c2F)C2(C(=O)Nc3cc(Cl)ccc32)C12CCCCC2', '1 (yes)'),
  ('C=C(F)C(=O)N1CCN(c2nc(OCC3CCCN3C)nc3c2CCN(c2cccc4cccc(Cl)c24)C3)CC1CC#N (stereo not drawn) + CCN1C(C(=O)NC23CCC(C(=O)O)(CC2)CC3)C(c2cccc(Cl)c2F)C2(C(=O)Nc3cc(Cl)ccc32)C12CCCCC2', '0 (no)'),
  ('CCN1CCN(Cc2ccc(Nc3ncc(F)c(-c4cc(F)c5nc(C)n(C(C)C)c5c4)n3)nc2)CC1 + CCN1C(C(=O)NC23CCC(C(=O)O)(CC2)CC3)C(c2cccc(Cl)c2F)C2(C(=O)Nc3cc(Cl)ccc32)C12CCCCC2', '0 (no)'),
  ('O=C(c1ccc(F)c(F)c1Nc1ccc(I)cc1F)N1CC(O)([C@@H]2CCCCN2)C1 + CCN1C(C(=O)NC23CCC(C(=O)O)(CC2)CC3)C(c2cccc(Cl)c2F)C2(C(=O)Nc3cc(Cl)ccc32)C12CCCCC2', '1 (yes)');
